Data provenance: patent US20220323614A1

PROCEDURE_DETAILS: mouse pharmacokinetics of Indi-199 by IV, IP and PO
Format: in vivo
EXPERIMENTAL_CONTEXT: in vivo; mouse, 20 mg/kg IP, 4 mg/mL in PBS
Where a SMILES comes first, the peptide text is derived from it. Bridges are numbered along the chain shown (N, C = ends). Triazole bridges read from a SMILES are 1,4-linked. [ ]: non-standard residue; d: D form. The star is where a group is joined. dPhe(4-Cl) = N[C@H](Cc1ccc(Cl)cc1)C(=O)O; Lys(N3) = [N-]=[N+]=NCCCC[C@H](N)C(=O)O; Morpholinoacetyl = O=C(CN1CCOCC1)*; Palmitoyl = CCCCCCCCCCCCCCCC(=O)*; Pra = C#CC[C@H](N)C(=O)O
MEASURED_METRIC: Tmax (h)
Numbers only, in h.

Using the record for CCCCCCCCCCCCCCCC(=O)NCCCC[C@H](NC(=O)[C@@H]1CCCCn2cc(nn2)C[C@H](NC(=O)CN2CCOCC2)C(=O)N[C@H](Cc2c[nH]c3ccccc23)C(=O)N[C@H](CCCCN)C(=O)N[C@H](Cc2ccc(O)cc2)C(=O)N[C@H](Cc2ccc(Cl)cc2)C(=O)N1)C(N)=O [Indi-199] (Morpholinoacetyl-[Pra][dW][dK][dY][dPhe(4-Cl)][Lys(N3)]K(Palmitoyl)-NH2; triazole 1-6) , report its Tmax.
6
